# Test system: Toxoplasma gondii
# Method description: Antiprotozoal activity against tachyzoite stage of Toxoplasma gondii RH assessed as viability at 200 uM after 4 hrs by trypan blue exclusion assay relative to control
# Type: functional
For each entry below, report its Activity value.
Answers are plain numbers, in %.

>  <Chemical string>
Br.CN1C(=O)CN(CCCCCN2CCCCCC2)c2ccc([N+](=O)[O-])cc21

>  <Unit string>
%

>  <Activity>
77

$$$$

Quick one: give me Activity for each item below, same order please.
1. Br.CN1C(=O)CN(CCCCCN2CCCC2)c2ccc([N+](=O)[O-])cc21
2. Br.O=C1CN(CCCCCN2CCCCC2)c2ccc([N+](=O)[O-])cc2N1

[84, 68]

====

Record form. Attribute: Activity. Fill in for each entry.
# System: J774
# Method description: Cytotoxicity against mouse J774 cells at 100 ug/mL after 24 hrs by MTT assay
# Assay type: cell-based
# Setup conditions: j774, 24 h
Units required after the number.

>  <Compound>
Br.CN1C(=O)CN(CCCCCN2CCc3ccccc3C2)c2ccc([N+](=O)[O-])cc21

>  <Target or test system>
J774

>  <Activity>
99.44%

$$$$
>  <Compound>
Br.O=C1CN(CCCCCN2CCCCC2)c2ccc([N+](=O)[O-])cc2N1

>  <Target or test system>
J774

>  <Activity>
3.36%

$$$$
>  <Compound>
Br.O=C1CN(CCCCCN2CCc3ccccc3C2)c2ccc([N+](=O)[O-])cc2N1

>  <Target or test system>
J774

>  <Activity>
100%

$$$$
>  <Compound>
Br.O=C1CN(CCCCCN2CCCCCC2)c2ccc([N+](=O)[O-])cc2N1

>  <Target or test system>
J774

>  <Activity>
59.14%

$$$$
>  <Compound>
Br.O=C1CN(CCCCCN2CCCC2)c2ccc([N+](=O)[O-])cc2N1

>  <Target or test system>
J774

>  <Activity>
0%

$$$$
>  <Compound>
CC1CS(=O)(=O)CCN1/N=C/c1ccc([N+](=O)[O-])o1 (centres undefined) [NIFURTIMOX]

>  <Target or test system>
J774

>  <Activity>
25.9%

$$$$
>  <Compound>
Br.CN1C(=O)CN(CCCCCN2CCCCC2)c2ccc([N+](=O)[O-])cc21

>  <Target or test system>
J774

>  <Activity>
61.38%

$$$$
>  <Compound>
Br.CN1C(=O)CN(CCCCCN2CCCC2)c2ccc([N+](=O)[O-])cc21

>  <Target or test system>
J774

>  <Activity>
49.25%

$$$$

Now, please, on to the next compound.
Please give the measured Activity for this compound: `Br.CN1C(=O)CN(CCCCCN2CCCCCC2)c2ccc([N+](=O)[O-])cc21`
75.75%

====

# System: Trypanosoma cruzi
# Method description: Trypanocidal activity against epimastigote stage of Trypanosoma cruzi CL Brener at 100 ug/mL after 72 hrs by beta-galactosidase reporter gene assay relative to control
# Format: functional
With a cut-off of 80%, any Activity strictly below it is called Fulfilled; any Activity meeting it or above is called Not fulfilled.

Illustrative cases are given below, each with its answer.
>  <Compound>
Br.O=C1CN(CCCCCN2CCc3ccccc3C2)c2ccc([N+](=O)[O-])cc2N1

>  <Class assignment>
Not fulfilled

$$$$
>  <Compound>
Br.CN1C(=O)CN(CCCCCN2CCCCCC2)c2ccc([N+](=O)[O-])cc21

>  <Class assignment>
Fulfilled

$$$$
>  <Compound>
CC1CS(=O)(=O)CCN1/N=C/c1ccc([N+](=O)[O-])o1 (centres undefined) [NIFURTIMOX]

>  <Class assignment>
Not fulfilled

$$$$
>  <Compound>
Br.O=C1CN(CCCCCN2CCCCC2)c2ccc([N+](=O)[O-])cc2N1

>  <Class assignment>
Not fulfilled

$$$$
>  <Compound>
Br.O=C1CN(CCCCCN2CCCCCC2)c2ccc([N+](=O)[O-])cc2N1

>  <Class assignment>
Not fulfilled

$$$$

Please indicate whether the reported Activity of `Br.CN1C(=O)CN(CCCCCN2CCCC2)c2ccc([N+](=O)[O-])cc21` is strictly below 80%.
Fulfilled

Activity strictly < 80% for this compound? `Br.CN1C(=O)CN(CCCCCN2CCc3ccccc3C2)c2ccc([N+](=O)[O-])cc21`
Fulfilled

Regarding `Br.O=C1CN(CCCCCN2CCCC2)c2ccc([N+](=O)[O-])cc2N1` , kindly confirm whether its Activity is beneath 80%.
Not fulfilled

====

Assignment: determine reported Activity for the given molecules.
# Test system: J774
# Method description: Cytotoxicity against mouse J774 cells at 10 ug/mL after 24 hrs by MTT assay
# Assay type: cell-based
# Setup conditions: j774, 24 h
Numbers only, in %.

Here is how some molecules turned out for Activity.
>  <Molecule>
Br.CN1C(=O)CN(CCCCCN2CCCCCC2)c2ccc([N+](=O)[O-])cc21

>  <Target or test system>
J774

>  <Unit string>
%

>  <Activity>
20.24

$$$$
>  <Molecule>
Br.O=C1CN(CCCCCN2CCc3ccccc3C2)c2ccc([N+](=O)[O-])cc2N1

>  <Target or test system>
J774

>  <Unit string>
%

>  <Activity>
13.25

$$$$
>  <Molecule>
Br.CN1C(=O)CN(CCCCCN2CCc3ccccc3C2)c2ccc([N+](=O)[O-])cc21

>  <Target or test system>
J774

>  <Unit string>
%

>  <Activity>
24.44

$$$$
>  <Molecule>
Br.O=C1CN(CCCCCN2CCCCCC2)c2ccc([N+](=O)[O-])cc2N1

>  <Target or test system>
J774

>  <Unit string>
%

>  <Activity>
5.78

$$$$
>  <Molecule>
Br.CN1C(=O)CN(CCCCCN2CCCCC2)c2ccc([N+](=O)[O-])cc21

>  <Target or test system>
J774

>  <Unit string>
%

>  <Activity>
11.57

$$$$
>  <Molecule>
Br.O=C1CN(CCCCCN2CCCCC2)c2ccc([N+](=O)[O-])cc2N1

>  <Target or test system>
J774

>  <Unit string>
%

>  <Activity>
0

$$$$
>  <Molecule>
Br.CN1C(=O)CN(CCCCCN2CCCC2)c2ccc([N+](=O)[O-])cc21

>  <Target or test system>
J774

>  <Unit string>
%

>  <Activity>
0

$$$$
>  <Molecule>
CC1CS(=O)(=O)CCN1/N=C/c1ccc([N+](=O)[O-])o1 (centres undefined) [NIFURTIMOX]

>  <Target or test system>
J774

>  <Unit string>
%

>  <Activity>
0.6

$$$$

// next item, Activity requested
Would you mind telling me what Activity value was observed for `Br.O=C1CN(CCCCCN2CCCC2)c2ccc([N+](=O)[O-])cc2N1` ?
0

====

# Test system: Toxoplasma gondii
# Method description: Antiprotozoal activity against tachyzoite stage of Toxoplasma gondii RH assessed as viability at 1 mM after 4 hrs by trypan blue exclusion assay relative to control
# Type: functional
Threshold 40%. Activity below it: label 1. Activity at it or above: label 0.

Solved cases (5 shown):
>  <Chemical string>
Br.CN1C(=O)CN(CCCCCN2CCCCCC2)c2ccc([N+](=O)[O-])cc21

>  <Target or test system>
Toxoplasma gondii

>  <Class assignment>
label 1

$$$$
>  <Chemical string>
Br.CN1C(=O)CN(CCCCCN2CCCC2)c2ccc([N+](=O)[O-])cc21

>  <Target or test system>
Toxoplasma gondii

>  <Class assignment>
label 1

$$$$
>  <Chemical string>
Br.CN1C(=O)CN(CCCCCN2CCCCC2)c2ccc([N+](=O)[O-])cc21

>  <Target or test system>
Toxoplasma gondii

>  <Class assignment>
label 1

$$$$
>  <Chemical string>
Br.CN(C)CCCCCN1CC(=O)N(C)c2cc([N+](=O)[O-])ccc21

>  <Target or test system>
Toxoplasma gondii

>  <Class assignment>
label 0

$$$$
>  <Chemical string>
Br.O=C1CN(CCCCCN2CCCC2)c2ccc([N+](=O)[O-])cc2N1

>  <Target or test system>
Toxoplasma gondii

>  <Class assignment>
label 1

$$$$

Consider `Br.O=C1CN(CCCCCN2CCCCCC2)c2ccc([N+](=O)[O-])cc2N1` . Does its Activity lie strictly below 40%?
label 1

Just wondering, is Activity of `Br.CN(C)CCCCCN1CC(=O)Nc2cc([N+](=O)[O-])ccc21` below 40%?
label 0

Please check: Activity for `Br.O=C1CN(CCCCCN2CCCCC2)c2ccc([N+](=O)[O-])cc2N1` , strictly under 40% or not?
label 1

====

Please provide measured Activity for the entries that follow.
# Tested on: Trypanosoma cruzi
# Method description: Trypanocidal activity against epimastigote stage of Trypanosoma cruzi CL Brener at 10 ug/mL after 72 hrs by beta-galactosidase reporter gene assay relative to control
# Format: functional
Answers are plain numbers, in %.

Reference set, count: 2
>  <Compound>
Br.O=C1CN(CCCCCN2CCc3ccccc3C2)c2ccc([N+](=O)[O-])cc2N1

>  <Activity / %>
56.77

$$$$
>  <Compound>
Br.CN1C(=O)CN(CCCCCN2CCc3ccccc3C2)c2ccc([N+](=O)[O-])cc21

>  <Activity / %>
15.62

$$$$

Below are some compounds; for each one, tell me its Activity.
1. Br.CN1C(=O)CN(CCCCCN2CCCC2)c2ccc([N+](=O)[O-])cc21
2. Br.O=C1CN(CCCCCN2CCCC2)c2ccc([N+](=O)[O-])cc2N1
3. Br.CN1C(=O)CN(CCCCCN2CCCCCC2)c2ccc([N+](=O)[O-])cc21
4. CC1CS(=O)(=O)CCN1/N=C/c1ccc([N+](=O)[O-])o1 (centres undefined) [NIFURTIMOX]
5. Br.O=C1CN(CCCCCN2CCCCCC2)c2ccc([N+](=O)[O-])cc2N1
6. Br.O=C1CN(CCCCCN2CCCCC2)c2ccc([N+](=O)[O-])cc2N1
7. Br.CN1C(=O)CN(CCCCCN2CCCCC2)c2ccc([N+](=O)[O-])cc21

2.51
5.35
15.38
90
23.84
17.68
60.68
